Exercise: for every item that follows, state its recorded Percent Effect.
tested.target: Chromo domain-containing protein 1 (Saccharomyces cerevisiae (strain ATCC 204508 / S288c) (Baker's yeast)) (UniProt P32657)
Sequence (P32657 whole entry, the tested form may be a part): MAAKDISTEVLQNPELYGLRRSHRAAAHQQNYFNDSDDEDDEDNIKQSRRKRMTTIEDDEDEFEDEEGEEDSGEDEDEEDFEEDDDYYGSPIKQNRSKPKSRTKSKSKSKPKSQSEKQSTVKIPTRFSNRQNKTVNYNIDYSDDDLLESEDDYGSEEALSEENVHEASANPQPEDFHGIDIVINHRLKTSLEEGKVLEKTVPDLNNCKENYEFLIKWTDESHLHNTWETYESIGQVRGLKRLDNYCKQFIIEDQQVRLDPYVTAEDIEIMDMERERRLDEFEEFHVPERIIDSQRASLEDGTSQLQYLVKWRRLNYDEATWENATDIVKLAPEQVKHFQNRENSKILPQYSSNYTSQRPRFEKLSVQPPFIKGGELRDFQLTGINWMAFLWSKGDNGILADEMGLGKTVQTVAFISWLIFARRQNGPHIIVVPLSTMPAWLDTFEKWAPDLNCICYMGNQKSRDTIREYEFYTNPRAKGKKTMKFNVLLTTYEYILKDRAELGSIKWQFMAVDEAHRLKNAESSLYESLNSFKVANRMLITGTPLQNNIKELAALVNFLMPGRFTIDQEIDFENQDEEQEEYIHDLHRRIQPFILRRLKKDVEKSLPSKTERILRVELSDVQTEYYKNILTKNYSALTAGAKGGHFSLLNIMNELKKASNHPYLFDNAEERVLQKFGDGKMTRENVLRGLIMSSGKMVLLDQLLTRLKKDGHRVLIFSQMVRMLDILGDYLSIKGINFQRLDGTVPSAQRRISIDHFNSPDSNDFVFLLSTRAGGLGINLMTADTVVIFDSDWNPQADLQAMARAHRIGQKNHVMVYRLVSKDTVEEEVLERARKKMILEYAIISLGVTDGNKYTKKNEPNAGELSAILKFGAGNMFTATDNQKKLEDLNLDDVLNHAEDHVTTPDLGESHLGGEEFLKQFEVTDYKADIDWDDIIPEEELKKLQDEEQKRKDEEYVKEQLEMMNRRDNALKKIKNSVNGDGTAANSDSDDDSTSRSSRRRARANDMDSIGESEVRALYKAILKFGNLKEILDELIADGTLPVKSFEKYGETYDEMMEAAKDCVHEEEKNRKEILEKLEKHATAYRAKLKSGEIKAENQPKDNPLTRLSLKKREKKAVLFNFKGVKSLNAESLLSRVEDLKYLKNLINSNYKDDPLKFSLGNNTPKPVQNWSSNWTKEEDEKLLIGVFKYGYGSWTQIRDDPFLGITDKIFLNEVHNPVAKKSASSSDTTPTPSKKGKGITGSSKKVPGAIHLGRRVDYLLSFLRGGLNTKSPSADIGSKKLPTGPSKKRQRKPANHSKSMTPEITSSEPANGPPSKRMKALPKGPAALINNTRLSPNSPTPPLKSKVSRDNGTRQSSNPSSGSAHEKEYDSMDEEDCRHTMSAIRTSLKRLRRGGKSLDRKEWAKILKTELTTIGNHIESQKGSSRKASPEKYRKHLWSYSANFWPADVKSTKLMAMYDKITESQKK
test.summary: ScCHD-1 Enzyme Inhibition Assay
Assay type: functional
Parameters: scale not given: in the data most compounds retested in dose-response had high values
applied.conditions: 30 µM
Give bare numbers, in %.

compound: Cc1noc(C)c1CN1CCCC2(CCN(C(=O)NC3CC3)C2)C1 (stereo unspecified)
assay.result: -10.3

compound: CO[C@@H]1CC[C@H]2[C@H]1OCCN2CC1CCOCC1
assay.result: -4.03

compound: Cc1cc(CN2C[C@@H]3COC[C@]3(CN(C)C)C2)no1
assay.result: -2.67

compound: CCc1noc(C(C)N2CCNCC2)n1 (stereo unspecified)
assay.result: -9.82

compound: O=C(Cc1c(F)cccc1F)N1CCN(CC(=O)N2CCCC2)CC1
assay.result: -6.7

// next entry
If you can, please state the reported Percent Effect value of O=C1[C@H]2CN(Cc3ccoc3)C[C@H]2CN1Cc1ccncc1 .
10.5

Reference source: ChEMBL document CHEMBL3988442
